The reader will find reported growth values listed item by item below.
tested on: OVCAR-5 ovarian; test: NCI-60 one-dose screen, 48 h (100 = growth as untreated, 0 = no growth, -100 = all killed); conditions: 10 µM unless noted
The panel holds about 83,000 compounds, 20% with a hit somewhere; the sample as a whole holds those more often.
property.name: growth (%)

- compound: "COc1ccc(Nc2[nH]n(C3=Nc4ccccc4Sc4ccccc43)c(=O)c2C#N)cc1"
  property.name: "growth"
  endpoint.value: 102
- compound: "Cc1ccc(N(CSc2ccc(Cl)cc2)CSc2ccc(Cl)cc2)cc1"
  property.name: "growth"
  endpoint.value: 79.1
- compound: "COc1ccc(/C=N\\N2CCOCC2)cc1OC1CCCC1"
  property.name: "growth"
  endpoint.value: 103
- compound: "COc1cc2nc(N3CCC[C@H](NC4=CC(=O)c5ccccc5C4=O)C3)nc(N)c2cc1OC"
  property.name: "growth"
  endpoint.value: 125
- compound: "c1ccc2cc(Cn3c(-c4ccc5ccccc5c4)[n+](Cc4ccc5ccccc5c4)c4ccccc43)ccc2c1"
  property.name: "growth"
  endpoint.value: -12.2
- compound: "CN1CCN(c2nc(-c3ccncc3)nc3sc4c(c23)CCCCCC4)CC1"
  property.name: "growth"
  endpoint.value: 81.3
- compound: "CN1CCc2c(Sc3ccc(C(=O)NO)cc3)c3ccccc3n2C1"
  property.name: "growth"
  endpoint.value: 27.1
- compound: "COc1cc(/C=C2\\C(=O)N(c3c(Cl)cccc3Cl)c3ccccc32)cc(OC)c1O"
  property.name: "growth"
  endpoint.value: 89.8
- compound: "c1ccc2c(c1)oc1cc3c(cc12)nnc1cccn13"
  property.name: "growth"
  endpoint.value: 116
- compound: "COc1ccc(-n2ncc3c4nc(OC)c(S(=O)(=O)c5ccccc5)cc4ccc32)cc1"
  property.name: "growth"
  endpoint.value: 91.3
- compound: "O=S(=O)(Nc1ccccc1Cl)c1ccc(-c2cnc(C3CC3)o2)cc1"
  property.name: "growth"
  endpoint.value: 38.3
- compound: "COc1cc(/C=C/C(=O)C(=Cc2ccc(F)c(F)c2)C(=O)/C=C/c2ccc(O)c(OC)c2)ccc1O"
  property.name: "growth"
  endpoint.value: 115
- compound: "CC(=O)OC[C@H](O)[C@@]1(O)CC[C@H]2[C@@H]3CCC4=CC(=O)CC[C@]4(C)[C@H]3[C@@H](O)C[C@@]21C"
  property.name: "growth"
  endpoint.value: 96.6
- compound: "Cc1ccc(-c2c3c(N)c4c(nc3nc3c2c(C)nn3-c2ccccc2)CCCC4)cc1"
  property.name: "growth"
  endpoint.value: 101
- compound: "Brc1ccccc1Nc1ccc2nnc(-c3ccncc3)n2n1"
  property.name: "growth"
  endpoint.value: 101
- compound: "Cc1nc2nc(C(F)(F)F)[nH]c2nc1C"
  property.name: "growth"
  endpoint.value: 115
- compound: "O/N=C/c1cccs1"
  property.name: "growth"
  endpoint.value: 100
- compound: "O=C1NC(=S)S/C1=C\\c1cccc([N+](=O)[O-])c1"
  property.name: "growth"
  endpoint.value: 96.9
- compound: "Cc1nn(-c2ccccc2)c2nc3nc4c(c(N)c3c(-c3ccc(Cl)cc3)c12)CCCC4"
  property.name: "growth"
  endpoint.value: 96.3
- compound: "CC1(C)N=C(N)N=C(N)N1c1cccc(/C=C/C=C/c2cccc([N+](=O)[O-])c2)c1"
  property.name: "growth"
  endpoint.value: 44.7
- compound: "COc1ccc(-c2c3c(N)c4c(nc3nc3c2c(C)nn3-c2ccccc2)CCCC4)cc1"
  property.name: "growth"
  endpoint.value: 90.1
- compound: "CC(=O)Nc1ccccc1-c1n[nH]c(=O)[nH]c1=O"
  property.name: "growth"
  endpoint.value: 96.4
- compound: "Cc1nc2cc(Nc3nc(Nc4ccc(F)cc4)nc(-c4ccc(Cl)cc4)n3)ccc2n1Cc1ccccc1"
  property.name: "growth"
  endpoint.value: 92.3
- compound: "NC1=NC(c2ccccc2OS(=O)(=O)c2ccc(Br)cc2)n2c(nc3ccccc32)N1 (stereo unspecified)"
  property.name: "growth"
  endpoint.value: 99
- compound: "COc1cc(NC(=O)COc2ccccc2)c(C(N)=O)cc1OC"
  property.name: "growth"
  endpoint.value: 48.8
- compound: "CC(C)(C)CC(C)(C)N(CSc1ccc(Cl)cc1)CSc1ccc(Cl)cc1"
  property.name: "growth"
  endpoint.value: 63.4
- compound: "Cc1ccc(C)c2c1sc1nc3nc4sc5ccccc5n4c(=N)c3c(=O)n12"
  property.name: "growth"
  endpoint.value: 91.3
- compound: "CCCCCCCCCCCCCCn1c2ccccc2c2c3c(c4c5cc(OC)ccc5oc4c21)C(=O)NC3=O"
  property.name: "growth"
  endpoint.value: 100
- compound: "O=C(CCCCCCC(=O)Nc1ccc2c(c1)/C(=C/c1ccc[nH]1)C(=O)N2)NO"
  property.name: "growth"
  endpoint.value: 0.698
- compound: "NC(=O)c1nc2c([nH]c1=O)CCCC2"
  property.name: "growth"
  endpoint.value: 117
- compound: "Cc1cc(=O)[nH]n1-c1cc(Cl)ccc1N"
  property.name: "growth"
  endpoint.value: 111
- compound: "Cc1nc2cc(Nc3nc(N4CCOCC4)nc(N4CCN(C)CC4)n3)ccc2n1Cc1ccccc1"
  property.name: "growth"
  endpoint.value: 96.7
- compound: "O=C1/C(=C/c2ccc(Cl)cc2)N=C(c2ccccc2)N1CCc1cccs1"
  property.name: "growth"
  endpoint.value: 30.5
- compound: "O=C(N/N=C/c1ccc2c(c1)OCO2)c1cnn2c1NC(c1ccccc1)C2 (stereo unspecified)"
  property.name: "growth"
  endpoint.value: 78.1
- compound: "COc1cccc(Nc2nc(NCCO)c3ccccc3n2)c1"
  property.name: "growth"
  endpoint.value: 101
- compound: "CC(C)(C)[Si](C)(C)OC1[C@@H](CNC(=O)NC(=O)CCl)O[C@@H](n2cnc3c(N)ncnc32)[C@H]1O[Si](C)(C)C(C)(C)C (stereo partly specified)"
  property.name: "growth"
  endpoint.value: -37.5
- compound: "CC1(C)CC(=O)C2=C(C1)Nc1cc3c(cc1C2c1ccc(F)cc1)OCO3 (stereo unspecified)"
  property.name: "growth"
  endpoint.value: 107
- compound: "Cc1nc2cc(Nc3nc(Nc4ccc(F)cc4)nc(-c4cccs4)n3)ccc2n1Cc1ccccc1"
  property.name: "growth"
  endpoint.value: 92
- compound: "Nc1nc2c(s1)CCc1c-2c(Br)n(Cc2ccccc2)c1Br"
  property.name: "growth"
  endpoint.value: 105
- compound: "N#Cc1c(O)c2c(c(O)c1C#N)C(=O)c1ccccc1C2=O"
  property.name: "growth"
  endpoint.value: 108
- compound: "COc1cc(/C=N/NC(=O)c2cnn3c2NC(c2ccccc2)C3)ccc1OC1CCCC1 (stereo unspecified)"
  property.name: "growth"
  endpoint.value: 59.7

Origin of the recorded values: PubChem BioAssay (NCI)
